// provenance: patent EP0930314A1

Tested on: Blood platelet aggregation
protocol details: Human in vitro blood platelet aggregation inhibition test (ADP-induced, PRP)
Format: cell-based
study conditions: Homo sapiens, Platelet, ADP final concentration 7 µM, concentration to inhibit the maximum aggregation by 50 %
assay metric: pIC50
A value of pIC50 is the negative decimal logarithm of a concentration given in moles per litre.

Query :: Write down the reported pIC50 (system: Blood platelet aggregation) of Cc1c(C(=O)NCCC(=O)O)sc(=NC(=O)c2ccc(C(=N)N3CCC4(CC3)OCCO4)cc2)n1C [Compound 1, p-toluenesulfonate dihydrate]
Result :: 7.66

###

target or test system: Purified GPIIb/IIIa receptor (Homo sapiens, UniProt P05106+P08514)
Construct: the cited Pytela method purifies the receptor from platelet extracts (own knowledge)
Sequence (P08514 32-887 limits assumed): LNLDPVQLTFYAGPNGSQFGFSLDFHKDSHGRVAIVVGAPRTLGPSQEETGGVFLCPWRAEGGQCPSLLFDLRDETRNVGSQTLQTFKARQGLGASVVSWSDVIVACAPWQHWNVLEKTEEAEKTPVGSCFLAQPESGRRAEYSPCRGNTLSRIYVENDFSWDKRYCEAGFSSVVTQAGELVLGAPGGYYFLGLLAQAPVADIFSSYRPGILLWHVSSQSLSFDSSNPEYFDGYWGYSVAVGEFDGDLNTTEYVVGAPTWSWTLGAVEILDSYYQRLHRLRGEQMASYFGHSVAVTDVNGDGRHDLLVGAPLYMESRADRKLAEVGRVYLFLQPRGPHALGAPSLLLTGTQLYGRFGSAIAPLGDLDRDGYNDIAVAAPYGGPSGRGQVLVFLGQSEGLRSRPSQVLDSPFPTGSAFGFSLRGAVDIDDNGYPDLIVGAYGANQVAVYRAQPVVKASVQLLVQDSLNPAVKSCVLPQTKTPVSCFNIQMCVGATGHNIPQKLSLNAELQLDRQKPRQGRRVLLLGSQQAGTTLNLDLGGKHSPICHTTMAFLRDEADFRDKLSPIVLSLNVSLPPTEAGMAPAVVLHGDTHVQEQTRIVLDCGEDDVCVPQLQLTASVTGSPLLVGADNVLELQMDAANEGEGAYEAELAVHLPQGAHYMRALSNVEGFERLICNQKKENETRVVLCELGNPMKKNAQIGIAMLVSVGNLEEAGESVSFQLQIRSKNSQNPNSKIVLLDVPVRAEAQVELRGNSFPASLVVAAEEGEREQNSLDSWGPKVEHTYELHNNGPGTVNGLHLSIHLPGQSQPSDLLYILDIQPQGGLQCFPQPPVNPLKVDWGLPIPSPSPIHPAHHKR
Sequence (P08514 891-1039 limits assumed): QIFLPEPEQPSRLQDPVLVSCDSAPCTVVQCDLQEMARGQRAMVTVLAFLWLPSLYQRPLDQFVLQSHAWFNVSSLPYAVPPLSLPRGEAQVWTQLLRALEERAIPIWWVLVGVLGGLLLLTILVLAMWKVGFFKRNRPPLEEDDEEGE
Sequence (P05106 27-788): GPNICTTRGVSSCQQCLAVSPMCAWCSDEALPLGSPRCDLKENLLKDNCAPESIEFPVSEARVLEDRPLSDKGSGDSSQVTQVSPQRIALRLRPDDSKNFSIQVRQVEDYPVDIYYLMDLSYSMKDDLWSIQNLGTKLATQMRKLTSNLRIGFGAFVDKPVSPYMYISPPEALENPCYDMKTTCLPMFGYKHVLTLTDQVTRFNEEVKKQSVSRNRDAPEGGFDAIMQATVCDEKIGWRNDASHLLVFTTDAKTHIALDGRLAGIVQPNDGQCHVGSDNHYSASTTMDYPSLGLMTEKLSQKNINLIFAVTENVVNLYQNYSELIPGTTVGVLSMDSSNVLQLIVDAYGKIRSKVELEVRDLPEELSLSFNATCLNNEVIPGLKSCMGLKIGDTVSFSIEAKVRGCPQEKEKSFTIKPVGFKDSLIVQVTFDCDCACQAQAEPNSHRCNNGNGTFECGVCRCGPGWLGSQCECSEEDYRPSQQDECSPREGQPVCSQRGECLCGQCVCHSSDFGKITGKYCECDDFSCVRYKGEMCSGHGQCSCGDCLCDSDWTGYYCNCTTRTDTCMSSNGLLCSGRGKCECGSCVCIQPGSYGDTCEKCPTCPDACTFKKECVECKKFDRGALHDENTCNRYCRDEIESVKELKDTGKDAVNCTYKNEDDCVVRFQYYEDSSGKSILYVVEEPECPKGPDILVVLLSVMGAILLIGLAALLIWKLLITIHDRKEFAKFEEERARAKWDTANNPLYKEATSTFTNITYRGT
protocol details: Fibrinogen receptor (GPIIb/IIIa) binding inhibition test (solid-phase, ELISA detection of bound fibrinogen)
study conditions: inhibition of fibrinogen (2 µg/ml) binding to solid phased purified GPIIb/IIIa, 4°C, 16 hours
Procedure: Purified GPIIb/IIIa was prepared by referring to the methods of Pytela et al (Science, 231 (1986) 1559) and a binding measurement system of solid phased GPIIb/IIIa was carried out by referring to the method of Kouns et al (Blood, 80 (1992) 2539). […]
assay metric: IC50 (nM)
Give the number; nM is assumed, so skip it.

Query :: Assign IC50 to the following record: Cc1c(C(=O)NCCC(=O)O)sc(=NC(=O)c2ccc(C(=N)N3CCC4(CC3)OCCO4)cc2)n1C [Compound 1, p-toluenesulfonate dihydrate]
Result :: 0.0805
